Data provenance is PubChem BioAssay.

assay info: reduction of polyQ htt aggregates in cells – imaging, exon1htt(103Q)mCFP cells, high-content imaging, primary screen (AID 483);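 further: compound exposure lasted 3 days before fixation; percent of the per-plate median nuclei count of sample wells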
experimental context: exon1htt(103Q)mCFP cell line, aggregate imaging, at 2 µM; measured here: cell count, toxicity
experimental endpoint: nuclei count
Output should be the measured figure followed by the unit it is expressed in.

Exercise: Recorded nuclei count for NC(=O)C1CCN(c2nc(-c3ccccc3)nc3ccccc23)CC1 , please?
Solution: 116%

Exercise: Entry CCOc1ccccc1N(C(=O)c1ccco1)C(C(=O)NC1CCCC1)c1cccnc1 (stereo not drawn) : reported nuclei count = ?
Solution: 79.6%

Exercise: Given the compound COc1ccc(Cl)cc1N1CCN(CCNC(=O)Nc2ccccc2C)CC1 , what is its reported nuclei count?
Solution: 108%

Exercise: Need nuclei count, item COc1ccc2c(=O)c3c(=O)n(Cc4ccco4)c(-c4cc(OC)c(OC)c(OC)c4)nc3oc2c1
Solution: 96.6%

Exercise: Returns the measured nuclei count for the input compound. Input: CN1CCc2c(sc3c2C(=O)NC(c2cccc(OC(=O)c4cccs4)c2)N3)C1 (stereo not drawn)
Solution: 101%

Exercise: Which nuclei count is listed for COc1ccc(S(=O)(=O)Nc2ccccc2SC)cc1C ?
Solution: 102%

Exercise: Quick check: nuclei count of CCOC(=O)N1CCN(Cc2ccccc2F)CC1 ?
Solution: 91.4%

Exercise: Form field: reported nuclei count of Cc1ccc2c(c1C)NC(C(=O)O)C1CC=CC21 (stereo not drawn)
Solution: 77.6%

Exercise: Given the entry COc1ccc2ccccc2c1CN1CCCC(CO)C1 (stereo not drawn) , report its measured nuclei count.
Solution: 110%

Exercise: Which nuclei count value belongs to CCOC(=O)N1CCN(C(=O)C2c3cc(OC)c(OC)cc3C(=O)N3CCc4ccccc4C23)CC1 (stereo not drawn) ?
Solution: 104%

Exercise: # input compound: O=C(O)Cc1ccccc1C(=O)O ; wanted: its nuclei count
Solution: 99.9%

Exercise: # get_value(readout='nuclei count', item= O=C(NCCCN1CCCC1=O)C1CCN(S(=O)(=O)N2CCOCC2)CC1 )
Solution: 94.9%

Exercise: Need nuclei count, item O=C(CSc1ccccc1C(=O)NCCCN1CCCC1=O)NCc1ccco1
Solution: 98.6%

Exercise: I would be grateful if you could share the reported nuclei count for COc1ccc(N2CCN(C(=O)CSc3ncnc4c3cnn4-c3ccccc3C)CC2)cc1 .
Solution: 120%

Exercise: // lookup nuclei count for CC1Oc2ccccc2N(Cc2ccccc2Cl)C1=O (stereo not drawn)
Solution: 59.5%

Exercise: Item under review: Cc1nc2ccc(NC(=O)N3CCSCC3)cc2s1 . Reported nuclei count?
Solution: 111%

Exercise: Given the compound CC(=O)N1CCN(S(=O)(=O)c2ccc(S(=O)(=O)NCC(C)C)cc2)CC1 , what is its reported nuclei count?
Solution: 102%

Exercise: # input compound: CCOC(=O)C1CCN(CC(=O)c2c(C)[nH]c3ccccc23)CC1 ; wanted: its nuclei count
Solution: 99.6%

* * *

assay info: endothelial E-selectin expression blockers – imaging, HUVEC, immunofluorescence, MLSMR starter and 10KST1 sets, primary screen (AID 487);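 further: signal is fraction of cell area covered by stained E-selectin grains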
experimental context: HUVEC TNFalpha-induced E-selectin immunofluorescence imaging, at 2 µM; stronger effect = higher value
Kindly state inhibition for each of the entries shown.
Kindly provide the numeric value in % only, without the unit symbol.

Exercise: May I ask what inhibition has been recorded for CCN(CC)c1ccc(C(=O)n2cnc3ccccc32)cc1 ?
Solution: -306

Exercise: So what's the measured inhibition for this one? N#CC1=C(N)SC(N)=C(C#N)C1CCc1ccccc1
Solution: -171

Exercise: What does the record list as inhibition for O=C(O)C1CC(=O)N(c2ccc(OCc3ccccc3Cl)cc2)C1 (stereo not drawn) ?
Solution: -95.2

Exercise: Quick one: inhibition of CCN1C(=C2C(=O)c3ccccc3C2=O)C=Cc2ccccc21 ?
Solution: -27.1

Exercise: Request the reported inhibition associated with COc1ccccc1NS(=O)(=O)c1ccc(OC)c(OC)c1
Solution: 30.1

Exercise: If you can, please state the reported inhibition value of CC1(C)Cc2c(c(=S)nc(-c3ccccc3)n2CCO)CO1 .
Solution: 41.7

Exercise: I'd like to know its inhibition. The compound in question is Cc1sc2nc3n(c(=O)c2c1C)NC(=O)CC3
Solution: 32.1

Exercise: Please give the measured inhibition for this compound: O=C(CSc1nnc(Cn2c(=O)sc3ccccc32)n1-c1ccccc1)Nc1nccs1
Solution: -7.4

Exercise: Query (compound): O=c1oc2ccccc2n1CCc1ccccc1 ; field requested: inhibition
Solution: -76.9

Exercise: # query: inhibition of entry CCCC(=O)Nc1ccc(NC(=O)c2ccccc2OC)cn1
Solution: -23.7

Exercise: Which inhibition reading was recorded for the compound COC(=O)COc1nc(C)c(Br)c(OC)n1 ?
Solution: -89.5

Exercise: Using the record for CC(C)CCSc1nc2c(c(=O)[nH]c(=O)n2C)n1CCCc1ccccc1 , report its inhibition.
Solution: -34.8

Exercise: inhibition for O=C(CCSc1ccccc1)Nc1ccc(S(=O)(=O)N2CCOCC2)cc1 ?
Solution: -102

Exercise: Would you kindly share the measured inhibition for Cc1ccc2nc(-c3ccc(S(=O)(=O)N4CCOCC4)cc3)cn2c1 ?
Solution: 7.4

Exercise: So what's the measured inhibition for this one? CCOC(=O)c1c(NC(=O)c2cccs2)sc2c1CCN(C(=O)OCC)C2
Solution: 14.8

Exercise: Can you look up the measured inhibition of O=C(Nc1cccc(F)c1)c1cccc(S(=O)(=O)N2CCOCC2)c1 for me?
Solution: -38.9

Exercise: Given O=C(CN(Cc1ccco1)C(=O)c1cc(=O)[nH]c2ccccc12)Nc1ccccc1Br , state its recorded inhibition.
Solution: 10.6

Exercise: Which value of inhibition has been reported for Nc1nonc1C(=O)NCCNCc1cc(Br)ccc1OCc1ccccc1F in the records?
Solution: -4.2

Exercise: Recorded inhibition of O=C(Nc1ccccc1)N(CCCN1CCOCC1)Cc1cc2cc3c(cc2[nH]c1=O)OCCO3 , please.
Solution: -24.2

Exercise: Consider the compound shown here: COC(=O)CN(Cc1ccco1)S(=O)(=O)c1ccccc1 What is its recorded inhibition?
Solution: -9.7

Exercise: // inhibition lookup, key: CC(C)c1cc(C(=O)Nc2cccnc2)no1
Solution: -9.6

Exercise: I'd like to know its inhibition. The compound in question is CC(NC(=O)c1ccco1)c1ccc2c(c1)OCCO2 (stereo not drawn)
Solution: -95

Exercise: // inhibition lookup, key: O=C(CSc1nc2cc(Cl)ccc2s1)N1CCN(C(=O)c2ccco2)CC1
Solution: -126

Exercise: Field request: inhibition | item: CCOc1ccc(Cl)cc1S(=O)(=O)N1CCCC1
Solution: -46.5

Exercise: Item Cc1ccc(C)n1-c1ccc(-n2cnnn2)cc1 has what recorded inhibition?
Solution: -24.4

Exercise: Can you share its inhibition? I mean this compound: CCCCc1cc2c(c(NC(C)=O)n1)c(=O)oc1ccccc12
Solution: 3.6

Exercise: What value of inhibition has been recorded for this entry: C/C(N)=C(/C#N)C(=O)COC(=O)COc1ccc(Cl)cc1
Solution: -5.5

Exercise: Can you share its inhibition? I mean this compound: O=C(NCc1ccccc1)C1CCN(S(=O)(=O)N2CCCCCC2)CC1
Solution: -19.7

Exercise: So what does the record say about inhibition for COC(=O)C1C2C=CC3(CN(CC4CCCO4)C(=O)C13)O2 (stereo not drawn) ?
Solution: 9.9

Exercise: GET /values?readout=inhibition&item= CCn1c(CSc2nnc(-c3cccnc3)n2-c2ccccc2C)nc2cc(C(=O)O)ccc21
Solution: -22.2

Exercise: Fill in: inhibition of O=C1CC(N2CCOCC2)C(=O)N1c1ccc2c(c1)OCO2 (stereo not drawn) is ___
Solution: -175

Exercise: Which inhibition reading was recorded for the compound Cc1cc(NC(=O)CCC(=O)N(CCc2ccccc2)C(C(=O)NC2CCCC2)c2ccco2)no1 (stereo not drawn) ?
Solution: 6.8

Exercise: Name the reported inhibition value associated with the compound O=C(NC1CCCCC1)c1nc2c(nnn2Cc2ccccc2Cl)c(=O)[nH]1
Solution: 7.2
